So I've got a bunch of compounds here, and I need their cytotoxicity at 70.5 h values.
# assay_method_text: Human HepG2 cell viability assay in 384 well format
# Format: toxicity, cell-based
# Set-up: dose 125 nL, time 70.5 hour; concentration not given beside the values
# measurement_conditions: HepG2 cells, read-out: Inhibition
One number for each entry, in %.

Worked cases, answers included:
stdin: Value lookup for cytotoxicity at 70.5 h; key = "Cc1nc2sccn2c1C(=O)N1CCc2c(nc(N(C)C)[nH]c2=O)C1"
stdout: 1.53

stdin: Repeat for the following compound: COc1ccccc1OCc1cc(C(=O)N2CCCCCC2CO)n[nH]1 (stereo not drawn)
stdout: 8.73

stdin: Repeat for the following compound: "CC(C)NC(=O)Nc1ccc(CS(C)(=O)=O)cc1"
stdout: -0.657

Below is a list of compounds. For each, state its recorded cytotoxicity at 70.5 h.
1. COc1cccc(C2CCCN2CCCNS(C)(=O)=O)c1 (stereo not drawn)
2. Cc1cccc(C(=O)N2CCN(c3ccccc3F)CC2)n1
3. O=C1NCCCCC1SCc1coc(-c2ccccc2)n1 (stereo not drawn)
4. CC(O)CC(C)(C)CNC(=O)NCc1cccc(-n2cncn2)c1 (stereo not drawn)
5. CCN(CC)S(=O)(=O)CCNC(=O)N(C)C(C)c1ccccn1 (stereo not drawn)
6. O[C@@H]1C[C@@H](c2nc(-c3ccccc3)no2)N(Cc2ccncc2)C1
7. COc1ccccc1N1CCN(C(=O)CCn2ccc(C)n2)CC1(C)C
8. O=C1CN(c2ccc(C(=O)N3CCc4ccccc43)cn2)CCN1

stdout:
-12.4
-7.27
-2.46
-7.73
-8.05
-1.52
-5.62
-6.79

Below is a list of compounds. For each, state its recorded cytotoxicity at 70.5 h.
1. COC(=O)NCC(=O)N1CCCn2nc(CN3CC[C@H](F)C3)cc2C1
2. CN(C(=O)C1CC(=O)N(CCc2ccccc2)C1)c1nccs1 (stereo not drawn)
3. CS(=O)(=O)c1ccc(CNC(=O)Nc2cn[nH]c2)cc1
4. O=C(c1ccc2nccn2c1)N1CCCC1c1noc(C2CC2)n1 (stereo not drawn)
5. Cc1cc(C)n(CC2CCCN2C(=O)c2cccn3ccnc23)n1 (stereo not drawn)
6. CCCOc1cc(CNC(=O)Nc2cccc(C(C)=O)c2)ccn1
7. COc1ccc(C)cc1CC(=O)Nc1cc(C)n[nH]1

stdout:
[-3.88, 16.6, -12.4, -5.7, -1.92, -0.91, -8.99]

Below is a list of compounds. For each, state its recorded cytotoxicity at 70.5 h.
1. Cn1cc(CN2CCCN(C(=O)c3sccc3C#N)CC2)cn1
2. COCC(=O)N1CCC(c2nccnc2Oc2cccnc2C)CC1
3. CN1CCN(Cc2cn3c(n2)CN(Cc2ccccn2)CC3)CC1
4. Cc1nc(C)n(CC2CCCCN2CC(=O)Nc2c(C)n[nH]c2C)n1 (stereo not drawn)
5. CSCC(CCO)NC(=O)Nc1cccc(Br)c1 (stereo not drawn)
6. CC(O)c1cn(Cc2ccccc2)nn1 (stereo not drawn)
7. Cc1cc(C)c2ncc(C#N)c(NC3CCN(CC(N)=O)CC3)c2c1
8. COc1ccc(C(C)N2CCC(CO)CC2)cc1Cl (stereo not drawn)

stdout:
[-2.13, -34, -9.35, -1.79, -0.357, -6.51, 1.44, -2.59]

Below is a list of compounds. For each, state its recorded cytotoxicity at 70.5 h.
1. CCn1nc(C)c(-c2cncn2CCN(C)C2CCCC2)c1C
2. CN(C)C(C(=O)N1CCSCC1)c1ccccc1F (stereo not drawn)
3. O=C1COC2(CCN(Cc3cccs3)CC2)CN1c1cncnc1
4. CN(C)C(=O)CN1CC[C@H]2CN(S(C)(=O)=O)C[C@@H]2C1=O
5. Cc1cc(C(=O)N2CC[C@H](N3CCN(C)CC3)[C@H](CCCO)C2)n(C)n1
6. CC(=O)N1CCC2(CC1)CCN(C(=O)c1ccc(F)c(C(F)(F)F)c1)C2
7. Clc1snnc1CN1CCCCC1Cn1cncn1 (stereo not drawn)

stdout:
[-7.35, -5.06, 0.999, -3.84, -6.07, -7.91, 11.8]

Data credit: ChEMBL document CHEMBL3507680
